Target: GlcNAc(b1-4)[GlcNAc(b1-6)]GalNAc
Assay: glycan array binding signal (z-score within array); higher = stronger binding
Conditions: glycan notation: IUPAC condensed, linker removed
The full list was thinned out, with the strongest signals kept by preference.
Measurement type: glycan array binding signal (z-score)
I only need the number, thanks.

# Binder, Reported result
measured = [
    ("EUL D1A second (Oryza sativa) (protein) GAATACTIGGVPVHTVRVFSAAGEDYCLTVRNGTACLAPKNPRDDYQHWIKDMRHSNKIRDEEGYPAFALVNKVTGEAIKHSTGQGHPVKLVPYNPEYQDESVLWTESKDVGKGFRCIRMVNNIYLNFDAFHGDKDHGGIHDGTEIVLWKWCEGDNQRWKILPWILEQKLISEEDLNSAVDHHHHHH", -0.443),
    ("PILRa (Homo sapiens), Q9UKJ1 (protein) MGRPLLLPLLPLLLPPAFLQPSGSTGSGPSYLYGVTQPKHLSASMGGSVEIPFSFYYPWELATAPDVRISWRRGHFHRQSFYSTRPPSIHKDYVNRLFLNWTEGQKSGFLRISNLQKQDQSVYFCRVELDTRSSGRQQWQSIEGTKLSITQAVTTTTQRPSSMTTTWRLSSTTTTTGLRVTQGKRRSDSWHISLETAVGVAVAVTVLGIMILGLICLLRWRRRKGQQRTKATTPAREPFQNTEEPYENIRNEGQNTDPKLNPKDDGIVYASLALSSSTSPRAPPSHRPLKSPQNETLYSVLKA", -0.213),
]

Which glycan array binding signal (z-score) reading was recorded for the binder MRCL (Homo sapiens), NP_872425.1 (protein) ATKVHFPFHTCDLRIDGDCFMVSSEADTYYRARMKCQRKGGVLAQIKSQKVQDILAFYLGRLETTNEVTDSDFETRNFWIGLTYKTAKDSFRWATGEHQAFTSFAFGQPDNHGLVWLSAAMGFGNCVELQASAAFNWNNQRCKTRNRYICQFAQEHISRWGPGS ?
-0.523
